Test: Estimation of solubility in simulated lung fluid (SLF, pH 7.4) by HPLC
Format: physicochemical
Conditions: fassgf or other biorelevant, thermodynamic from solid, SLF pH 7.4, 45° C., 2 hours
attributeMeasured: solubility at 2 h (µg/mL)
Report the value in µg/mL with no unit label.

Which solubility at 2 h is listed for C=C(NC(=O)C(=C)NC(=O)c1csc(C2=NC3c4csc(n4)C4NC(=O)c5csc(n5)C(C(C)(O)C(C)O)NC(=O)C5CSC(=N5)/C(=C\C)NC(=O)C(C(C)O)NC(=O)c5csc(n5)C3(CC2)NC(=O)C(C)NC(=O)C(=C)NC(=O)C(C)NC(=O)C(C(C)C)NC2C=Cc3c(C(C)O)cc(nc3C2O)C(=O)OC4C)n1)C(N)=O (stereo not shown) ? 0.9

* * *

Experiment: Estimation of solubility in simulated lung fluid (SLF, pH 7.4) by HPLC
Type: physicochemical
Settings: fassgf or other biorelevant, thermodynamic from solid, SLF pH 7.4, 60° C., 3 hours
attributeMeasured: solubility at 3 h (µg/mL)
Report the value in µg/mL with no unit label.

Which solubility at 3 h is listed for C=C(NC(=O)C(=C)NC(=O)c1csc(C2=NC3c4csc(n4)C4NC(=O)c5csc(n5)C(C(C)(O)C(C)O)NC(=O)C5CSC(=N5)/C(=C\C)NC(=O)C(C(C)O)NC(=O)c5csc(n5)C3(CC2)NC(=O)C(C)NC(=O)C(=C)NC(=O)C(C)NC(=O)C(C(C)C)NC2C=Cc3c(C(C)O)cc(nc3C2O)C(=O)OC4C)n1)C(N)=O (stereo not shown) [Compound of formula I] ? 1.3

* * *

Experiment: Pulmonary bioavailability, nose-only exposure lung deposition (Example 21)
Format: in vivo, Guinea pigs
Details: guinea pig, in vivo; lung, 3 mg/kg, nose-only, 1 hour nebulization; 6 hours post exposure; read-out: Compound of formula I deposited
attributeMeasured: concentration at 6 h (ng/g)
Report the value in ng/g with no unit label.

Which concentration at 6 h is listed for C=C(NC(=O)C(=C)NC(=O)c1csc(C2=NC3c4csc(n4)C4NC(=O)c5csc(n5)C(C(C)(O)C(C)O)NC(=O)C5CSC(=N5)/C(=C\C)NC(=O)C(C(C)O)NC(=O)c5csc(n5)C3(CC2)NC(=O)C(C)NC(=O)C(=C)NC(=O)C(C)NC(=O)C(C(C)C)NC2C=Cc3c(C(C)O)cc(nc3C2O)C(=O)OC4C)n1)C(N)=O (stereo not shown) [Compound of formula I] ? 1

* * *

Test: Pilot in vivo lung deposition study (Example 20)
Design: species or system Guinea pigs
Details: guinea pig, lungs, 10 mg/kg aerosolized, passive breathing, read-out: compound of formula I deposited
attributeMeasured: concentration at 30 min

Which concentration at 30 min is listed for C=C(NC(=O)C(=C)NC(=O)c1csc(C2=NC3c4csc(n4)C4NC(=O)c5csc(n5)C(C(C)(O)C(C)O)NC(=O)C5CSC(=N5)/C(=C\C)NC(=O)C(C(C)O)NC(=O)c5csc(n5)C3(CC2)NC(=O)C(C)NC(=O)C(=C)NC(=O)C(C)NC(=O)C(C(C)C)NC2C=Cc3c(C(C)O)cc(nc3C2O)C(=O)OC4C)n1)C(N)=O (stereo not shown) ? 0 ng/g

* * *

Experiment: Pulmonary bioavailability, nose-only exposure lung deposition (Example 21)
Format: in vivo, Guinea pigs
Conditions: guinea pig, in vivo; lung, 3 mg/kg, nose-only, 1 hour nebulization; 12 hours post exposure; read-out: Compound of formula I deposited
attributeMeasured: concentration at 12 h (ng/g)
Report the value in ng/g with no unit label.

Which concentration at 12 h is listed for C=C(NC(=O)C(=C)NC(=O)c1csc(C2=NC3c4csc(n4)C4NC(=O)c5csc(n5)C(C(C)(O)C(C)O)NC(=O)C5CSC(=N5)/C(=C\C)NC(=O)C(C(C)O)NC(=O)c5csc(n5)C3(CC2)NC(=O)C(C)NC(=O)C(=C)NC(=O)C(C)NC(=O)C(C(C)C)NC2C=Cc3c(C(C)O)cc(nc3C2O)C(=O)OC4C)n1)C(N)=O (stereo not shown) ? 1

* * *

Assay: Cumulative accumulation after once a day dosing for 5 days (Example 22)
Parameters: species or system Guinea pigs
Settings: guinea pig, in vivo; lung, 3 mg/kg, 1 hour nebulization everyday for five consecutive days, sacrificed on 6th day; read-out: Compound of formula I deposited
attributeMeasured: concentration at 6 day (ng/g)
Report the value in ng/g with no unit label.

Which concentration at 6 day is listed for C=C(NC(=O)C(=C)NC(=O)c1csc(C2=NC3c4csc(n4)C4NC(=O)c5csc(n5)C(C(C)(O)C(C)O)NC(=O)C5CSC(=N5)/C(=C\C)NC(=O)C(C(C)O)NC(=O)c5csc(n5)C3(CC2)NC(=O)C(C)NC(=O)C(=C)NC(=O)C(C)NC(=O)C(C(C)C)NC2C=Cc3c(C(C)O)cc(nc3C2O)C(=O)OC4C)n1)C(N)=O (stereo not shown) ? 1

* * *

Assay: Pulmonary bioavailability, nose-only exposure lung deposition (Example 21)
Format: in vivo, Guinea pigs
Settings: guinea pig, in vivo; lung, 3 mg/kg, nose-only, 1 hour nebulization; 24 hours post exposure; read-out: Compound of formula I deposited
attributeMeasured: concentration at 24 h (ng/g)
Report the value in ng/g with no unit label.

Which concentration at 24 h is listed for C=C(NC(=O)C(=C)NC(=O)c1csc(C2=NC3c4csc(n4)C4NC(=O)c5csc(n5)C(C(C)(O)C(C)O)NC(=O)C5CSC(=N5)/C(=C\C)NC(=O)C(C(C)O)NC(=O)c5csc(n5)C3(CC2)NC(=O)C(C)NC(=O)C(=C)NC(=O)C(C)NC(=O)C(C(C)C)NC2C=Cc3c(C(C)O)cc(nc3C2O)C(=O)OC4C)n1)C(N)=O (stereo not shown) ? 1

Data origin: patent US8697653B2
